Test Summary: APR_HepG2_CellLoss_24hr: Apredica 24-hour HepG2 Assay for Cell Loss (AID 2282908)
Test Conditions: high-content imaging
Calls of active or inactive are those of the source. How the source made its calls: active means hit-call score of the fitted dose curve at least 0.9, where 1 is the maximum; inactive means score below 0.9.
Answer with one of the outcomes given here: active, inactive

Field: example entries. Status: answers known.
>  <Molecule>
O=C(O)C(F)(F)C(F)(F)C(F)(F)C(F)(F)C(F)(F)C(F)(F)C(F)(F)C(F)(F)F

>  <Cat>
active

$$$$
>  <Molecule>
CN(C)c1nc(=O)n(C2CCCCC2)c(=O)n1C

>  <Cat>
inactive

$$$$
>  <Molecule>
O=C(N[C@H]1CN2CCC1CC2)c1cc2ccoc2cn1

>  <Cat>
inactive

$$$$
>  <Molecule>
COc1ccc(O)c(C(C)(C)C)c1

>  <Cat>
inactive

$$$$
>  <Molecule>
CCCCCCCCOC(=O)c1ccccc1C(=O)OCCCCCCCC

>  <Cat>
inactive

$$$$
>  <Molecule>
CC1=C2C[C@H]3[C@@H](CC=C4C[C@@H](O)CC[C@@]43C)[C@@H]2CC[C@]12O[C@@H]1C[C@H](C)CN[C@H]1[C@H]2C

>  <Cat>
active

$$$$
>  <Molecule>
ClC1=C(Cl)[C@]2(Cl)[C@@H]3[C@H]4C[C@H]([C@@H]5O[C@H]45)[C@@H]3[C@@]1(Cl)C2(Cl)Cl

>  <Cat>
inactive

$$$$
>  <Molecule>
Cc1cccc(C)c1N

>  <Cat>
inactive

$$$$

Assay result, entry `O=NN(c1ccccc1)c1ccccc1` — outcome? inactive

Assay result, entry `O=C(NC(=O)c1c(F)cccc1F)Nc1cc(Cl)c(OC(F)(F)C(F)F)c(Cl)c1` — outcome? inactive

Assay result, entry `Oc1ccc(Cl)cc1Cl` — outcome? inactive
